target: Lysine-specific demethylase 5B (Homo sapiens) (UniProt Q9UGL1); test: Primary screen for KDM5B Histone Demethylases FDH-coupled qHTS; conditions: FDH-coupled NADH fluorescence; series mostly up to 57.7 µM; note: nearly all actives have a fitted effect of over 70% in size
Sequence (Q9UGL1 whole entry, looked up): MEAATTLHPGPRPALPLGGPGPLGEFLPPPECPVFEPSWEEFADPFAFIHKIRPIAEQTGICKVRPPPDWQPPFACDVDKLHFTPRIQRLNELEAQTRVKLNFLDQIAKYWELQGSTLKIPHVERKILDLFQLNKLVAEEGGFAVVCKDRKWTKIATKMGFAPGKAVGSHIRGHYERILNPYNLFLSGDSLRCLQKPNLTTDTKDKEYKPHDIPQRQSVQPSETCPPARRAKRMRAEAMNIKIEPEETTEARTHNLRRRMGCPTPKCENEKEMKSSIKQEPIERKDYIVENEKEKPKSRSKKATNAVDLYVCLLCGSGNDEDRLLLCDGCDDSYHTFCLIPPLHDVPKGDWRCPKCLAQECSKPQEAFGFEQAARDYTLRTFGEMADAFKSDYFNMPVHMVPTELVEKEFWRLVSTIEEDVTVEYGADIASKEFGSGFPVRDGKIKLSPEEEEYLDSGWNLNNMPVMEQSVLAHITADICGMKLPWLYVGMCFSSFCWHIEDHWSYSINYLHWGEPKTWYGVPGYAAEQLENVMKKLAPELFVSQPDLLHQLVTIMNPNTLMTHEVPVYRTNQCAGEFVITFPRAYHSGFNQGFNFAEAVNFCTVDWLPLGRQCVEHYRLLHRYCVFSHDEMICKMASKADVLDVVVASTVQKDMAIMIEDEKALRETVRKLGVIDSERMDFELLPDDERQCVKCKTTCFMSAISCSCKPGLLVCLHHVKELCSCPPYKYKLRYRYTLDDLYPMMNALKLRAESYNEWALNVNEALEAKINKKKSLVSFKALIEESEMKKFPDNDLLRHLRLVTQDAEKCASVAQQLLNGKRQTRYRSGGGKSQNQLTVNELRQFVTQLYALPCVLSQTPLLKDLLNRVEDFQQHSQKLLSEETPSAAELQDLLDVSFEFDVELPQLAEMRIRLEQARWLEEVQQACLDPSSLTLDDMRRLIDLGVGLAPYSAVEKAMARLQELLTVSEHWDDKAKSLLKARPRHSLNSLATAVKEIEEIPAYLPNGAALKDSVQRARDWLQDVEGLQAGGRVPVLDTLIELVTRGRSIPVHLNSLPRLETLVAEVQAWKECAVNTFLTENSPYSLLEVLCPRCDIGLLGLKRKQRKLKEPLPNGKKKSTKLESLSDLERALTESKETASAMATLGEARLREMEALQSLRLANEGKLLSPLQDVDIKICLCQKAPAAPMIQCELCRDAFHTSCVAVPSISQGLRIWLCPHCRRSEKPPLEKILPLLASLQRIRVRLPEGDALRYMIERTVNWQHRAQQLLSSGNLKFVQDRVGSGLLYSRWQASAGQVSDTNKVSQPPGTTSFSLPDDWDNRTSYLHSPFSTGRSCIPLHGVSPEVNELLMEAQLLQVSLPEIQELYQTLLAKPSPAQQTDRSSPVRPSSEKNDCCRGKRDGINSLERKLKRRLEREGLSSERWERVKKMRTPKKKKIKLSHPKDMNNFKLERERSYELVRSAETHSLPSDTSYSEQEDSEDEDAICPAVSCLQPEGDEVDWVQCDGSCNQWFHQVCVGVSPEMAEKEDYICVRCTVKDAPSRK
Out of some 220,000 compounds screened, about 5,700 (2.6%) were called active. Not shown: some 18% with an inconclusive outcome. This excerpt belongs to a sample that is enriched for actives.

Compound: CCS(=O)(=O)N1CC(=O)N(Cc2ccccc2Cl)C(C)(C(=O)NCc2ccccc2OC)C1 (stereo not drawn)
outcome: inactive
//
Compound: Cc1cc(Cl)cc(SCC(=O)O)c1Cl
outcome: inactive
//
Compound: Cc1ccc2c(=O)cc(C(=O)N(Cc3ccc(Cl)cc3)C3CCS(=O)(=O)C3)oc2c1C (stereo not drawn)
outcome: inactive

---

target: Lysine-specific demethylase 5B (Homo sapiens) (UniProt Q9UGL1); experiment: Primary screen for KDM5B Histone Demethylases FDH-coupled qHTS; details: FDH-coupled NADH fluorescence; series mostly up to 57.7 µM; note: nearly all actives have a fitted effect of over 70% in size
About 5,700 (2.6%) of roughly 220,000 compounds were called active. Not shown: some 18% with an inconclusive outcome. Calls come from the whole dose curve; as a rule, active = well fitted inhibition curve with a large enough effect; inconclusive = small, poorly fitted or top-dose-only effect; inactive = no such curve, though single readings can be large or run the other way. The full list was thinned out, with actives kept by preference.
Could you please pick one outcome from this set? active, inactive

Examples from the recorded data:
Molecule: COCCN1CCOc2nc(-c3cccc(C)c3)ncc2C1=O
Target Or System: Lysine-specific demethylase 5B (Homo sapiens) (UniProt Q9UGL1)
Label Class: inactive
--
Molecule: COc1ccc(N2C(=O)C(C)CS2(=O)=O)cc1S(=O)(=O)Nc1ccc(N2CCCC2)cc1 (centres undefined)
Target Or System: Lysine-specific demethylase 5B (Homo sapiens) (UniProt Q9UGL1)
Label Class: inactive
--
Molecule: COc1ccc(-c2noc(-c3cccn3CC(=O)Nc3cc(Cl)ccc3OC)n2)cc1F
Target Or System: Lysine-specific demethylase 5B (Homo sapiens) (UniProt Q9UGL1)
Label Class: inactive
--
Molecule: Cc1cc(S(=O)(=O)c2cc3cc(F)cc(F)c3oc2=O)ccc1F
Target Or System: Lysine-specific demethylase 5B (Homo sapiens) (UniProt Q9UGL1)
Label Class: inactive

Could you check what this test reported for `COc1ccccc1-c1cc(C(=O)NCc2cnn(C)c2)c2c(c1)N(C)CCO2` ?
active

Could you check what this test reported for `Cc1noc(-c2cccn3c(CNC(=O)CCc4ccccc4)nnc23)n1` ?
active

Could you check what this test reported for CCCN1C(=O)NC(CC(=O)N2CCC(O)(c3ccc(C)cn3)CC2)C1=O (centres undefined) ?
inactive

Could you check what this test reported for `CCCC(=O)Nc1ccc(-c2csc(NC)n2)cc1` ?
inactive

Could you check what this test reported for `COc1ccc(-c2ncc3c(n2)OCCN(CC2CC2)C3=O)cc1` ?
active

---

biological target: Lysine-specific demethylase 5B (Homo sapiens) (UniProt Q9UGL1); assay: Primary screen for KDM5B Histone Demethylases FDH-coupled qHTS; conditions: FDH-coupled NADH fluorescence; series mostly up to 57.7 µM; note: nearly all actives have a fitted effect of over 70% in size
In all, about 220,000 compounds went through this assay and about 5,700 (2.6%) were called active. Roughly 18% stayed inconclusive and do not appear here. Calls come from the whole dose curve; as a rule, active = well fitted inhibition curve with a large enough effect; inconclusive = small, poorly fitted or top-dose-only effect; inactive = no such curve, though single readings can be large or run the other way. Only a selection was taken, and actives are over-represented in it overall.
Could you please pick one outcome from this set? Y for active, N for inactive

Examples from the recorded data:
Structure String: CN(c1ccccc1)c1cc(=O)c2ccnc(NC3CCOCC3)c2o1
Label Class: N
--
Structure String: O=c1cc(N2CCOCC2)oc2c(NCc3ccncc3)nccc12
Label Class: Y

Could you check what this test reported for `O=C(O)c1cc(Br)c(Cl)[nH]1` ?
N

---

biological target: Lysine-specific demethylase 5B (Homo sapiens) (UniProt Q9UGL1); assay: Primary screen for KDM5B Histone Demethylases FDH-coupled qHTS; conditions: FDH-coupled NADH fluorescence; series mostly up to 57.7 µM; note: nearly all actives have a fitted effect of over 70% in size
Out of some 220,000 compounds screened, about 5,700 (2.6%) were called active. Another 18% or so got no clear call; they are omitted. Calls come from the whole dose curve; as a rule, active = well fitted inhibition curve with a large enough effect; inconclusive = small, poorly fitted or top-dose-only effect; inactive = no such curve, though single readings can be large or run the other way. The sample as a whole holds a higher share of actives than the screen did.
Could you please pick one outcome from this set? active, inactive

Examples from the recorded data:
Compound: Cc1ccc(-c2ccc3nnc(CNC(=O)c4cccnc4)n3n2)cc1C
Label Class: active
--
Compound: O=C(NCCCN1CCCC1)c1cccnc1
Label Class: inactive
--
Compound: COC(=O)c1ccc(C(=O)OCc2nc(N)c3ccccc3n2)cc1
Label Class: inactive
--
Compound: O=C(NC1CCN(c2cc(C(F)(F)F)ncn2)CC1)c1ccc(F)cc1
Label Class: inactive
--
Compound: CC[C@H](C)NC(=O)c1ccc2nc(-c3ccc(C)cc3)cc(OC)c2c1
Label Class: inactive
--
Compound: COc1ccc2c(=O)c(Oc3cccc(C)c3)c(C(F)(F)F)oc2c1
Label Class: inactive

Could you check what this test reported for `COc1ccccc1C(=O)N1CCC2(CC1)C(=O)Nc1ccccc12` ?
inactive

Could you check what this test reported for `N#Cc1cccc(C2CCN(C(=O)C3CCN(C(=O)C4CC4)CC3)CC2)c1` ?
inactive

Could you check what this test reported for `Cc1ccc(C(=O)NC2CCN(C(=O)Nc3ccc(F)cc3)CC2)cc1` ?
inactive

Could you check what this test reported for CC1(C(=O)NCC2CCCO2)CCCc2cnc(Nc3ccccc3)nc21 (stereo unspecified) ?
inactive

Could you check what this test reported for `Cc1ccc(C(=O)N2CCC3(CC2)NC(=O)N(Cc2ccc(F)cc2)C3=O)cc1` ?
inactive

Could you check what this test reported for `O=C(Cn1ccn2nc(-c3ccc(F)cc3)c(CO)c2c1=O)NC1CCCC1` ?
inactive

Could you check what this test reported for CC1(C(=O)NCc2ccc3c(c2)OCO3)CCc2cnc(NCc3ccccc3)nc21 (stereo unspecified) ?
active

Could you check what this test reported for `O=C(N[C@@H]1CN(c2ccncn2)C[C@H]1CO)C1CCCC1` ?
inactive

Could you check what this test reported for `CNc1nc(C(=O)NCc2ccc3[nH]c(-c4ccc(F)cc4)c(C)c3c2)cs1` ?
active

---

biological target: Lysine-specific demethylase 5B (Homo sapiens); assay: Primary screen for KDM5B Histone Demethylases FDH-coupled qHTS; conditions: FDH-coupled NADH fluorescence; series mostly up to 57.7 µM; note: nearly all actives have a fitted effect of over 70% in size
Hit rate of the full screen: of about 220,000 compounds, about 5,700 (2.6%) were called active. About 18% were inconclusive and are not listed. Calls come from the whole dose curve; as a rule, active = well fitted inhibition curve with a large enough effect; inconclusive = small, poorly fitted or top-dose-only effect; inactive = no such curve, though single readings can be large or run the other way. Many of the other results were omitted from the sample, so actives are more common in it than they were.
Could you please pick one outcome from this set? yes (1) for active, no (0) for inactive

Examples from the recorded data:
Compound: COc1ccc(NC(=O)CSCc2ccc(F)cc2Cl)cc1
Target Or System: Lysine-specific demethylase 5B (Homo sapiens)
Label Class: no (0)
//
Compound: CCOc1ccc(NC(=O)CSc2nc3c(c(=O)[nH]2)CN(Cc2ccc(Cl)cc2)CC3)cc1
Target Or System: Lysine-specific demethylase 5B (Homo sapiens)
Label Class: no (0)
//
Compound: Cc1cn2nc(C(=O)Nc3ccc(F)cc3F)cc2c(N(C)Cc2ccccc2)n1
Target Or System: Lysine-specific demethylase 5B (Homo sapiens)
Label Class: no (0)
//
Compound: Cc1cn2nc(C(=O)Nc3cc(F)cc(F)c3)cc2c(N(C)Cc2ccccc2)n1
Target Or System: Lysine-specific demethylase 5B (Homo sapiens)
Label Class: yes (1)
//
Compound: Cc1cc(N2CCC(NC(=O)c3ccc(N(C)C)cc3)C2=O)ccc1F (configuration not stated)
Target Or System: Lysine-specific demethylase 5B (Homo sapiens)
Label Class: no (0)
//
Compound: CN(C)c1cccc(Nc2cc3c(cn2)NCCN(Cc2ccccc2)C3)c1
Target Or System: Lysine-specific demethylase 5B (Homo sapiens)
Label Class: yes (1)
//
Compound: Cc1ccc(C(=O)N2CC[C@H](CO)[C@H](NC(=O)C3CC3)C2)cn1
Target Or System: Lysine-specific demethylase 5B (Homo sapiens)
Label Class: no (0)
//
Compound: NC(=O)c1cccc(C(=O)N2CCC(c3nc4ccccc4o3)CC2)c1
Target Or System: Lysine-specific demethylase 5B (Homo sapiens)
Label Class: no (0)
//
Compound: CCN(CC)c1nc2ccccc2nc1C(=O)Nc1ccc(C)c(C)c1
Target Or System: Lysine-specific demethylase 5B (Homo sapiens)
Label Class: no (0)
//
Compound: O=C(NCc1cccnc1)c1ccc2c(c1)n(Cc1ccc(F)cc1)c(=O)c1ccnn12
Target Or System: Lysine-specific demethylase 5B (Homo sapiens)
Label Class: yes (1)

Could you check what this test reported for `Cc1ccc(OCC(=O)Nc2ccc3oc(=O)ccc3c2)cc1C` ?
no (0)

Could you check what this test reported for `Cc1nc2c(c(NC3CC3)n1)CCN(C(=O)CCc1cccnc1)CC2` ?
no (0)

Could you check what this test reported for `Fc1ccccc1CN1CCNc2cc(Nc3cccnc3)ncc2C1` ?
no (0)

Could you check what this test reported for `COc1cccc(CNC(=O)Cn2c(N(C)Cc3ccccc3)nc(C)cc2=O)c1OC` ?
no (0)

Could you check what this test reported for `COc1ccc(CN2CCc3nc(C(=O)N4CCOCC4)oc3CC2)cc1OC` ?
no (0)

---

molecular target: Lysine-specific demethylase 5B (Homo sapiens); assay: Primary screen for KDM5B Histone Demethylases FDH-coupled qHTS; conditions: FDH-coupled NADH fluorescence (FDH is formaldehyde dehydrogenase); series mostly up to 57.7 µM; note: nearly all actives have a fitted effect of over 70% in size; note: potency is the fitted concentration of half-maximal effect
The whole screen tested about 220,000 compounds, of which about 5,700 (2.6%) were called active. Inconclusive results (about 18%) are left out. Many of the other results were omitted from the sample, so actives are more common in it than they were.
Quantity Name: Potency

Please review the following examples before continuing.
Molecule: Cc1ccccc1CN1CCC(N2CCCC(C(=O)NC3CC3)C2)CC1 (stereo unspecified)
Target Or System: Lysine-specific demethylase 5B (Homo sapiens)
Potency: inactive

Molecule: CC(C)n1cnnc1CC1CCN(C(=O)CCCc2ccccc2)C1 (stereo unspecified)
Target Or System: Lysine-specific demethylase 5B (Homo sapiens)
Potency: inactive

Molecule: Cc1ccc2c(C(=O)O)cc(NC(=O)C(C)C)cc2n1
Target Or System: Lysine-specific demethylase 5B (Homo sapiens)
Potency: 20 µM (active)

Molecule: COc1ccc(C(=O)NCc2nnc3ccc(-c4ccc(C)cc4)nn23)cc1F
Target Or System: Lysine-specific demethylase 5B (Homo sapiens)
Potency: 28.2 µM (active)

Molecule: CCN(CC)Cc1ccc(CNC(=O)C2CCN(c3nc4ccccc4o3)CC2)cc1
Target Or System: Lysine-specific demethylase 5B (Homo sapiens)
Potency: inactive

Could you now consider this next molecule?
Would you mind telling me what Potency value was observed for O=C1NC2(CCN(C(=O)c3ccccc3)C2)COc2ccccc21 (stereo unspecified) ?
inactive

Data provenance: PubChem BioAssay AID1347165
